// data source = the nanobody polyreactivity screen of Harvey et al. (2022)

protocol.description: yeast display, Sf9 membrane polyspecificity reagent, FACS + sequencing; frameworks hold sequencing errors
metric.name: polyreactivity (PSR sort gate)

Take a look at these entries with their results.
* QGHLRESGGGLVQAGGSLRLTCAASGSNLWQYAMGWYRQATGKERELVAAITYSGGSTHYADSVKGRFTISRDNAKNTVYLQLNSLKPEDTAVYYCAAGSWYRYAALRYDHWGQGTQVTVST | low polyreactivity
* QVQLVESGGCLVQAGGSLRLSCAASGSIFLFYAMGWYRHPPGKERELVAVIDTRASTTYYADSVKGRFTISRDNAKNTVYLQMNSLKPEDTAVYYCAAELQFTLYYSRPLLYQYYYWGQGTQVTVSS | high polyreactivity
* QVQLVESGGGLVQAGGSLRLSCAASGSTFAGNAMGWSRQAPGKERELVAGITSSGARTYYADSVKGRFTISRDNAKNTVYLQMNSLKPEDTAVYYCNKYHFSPYDYWGQGTQVTVSS | high polyreactivity
* QVQLVESGGGLVQAGGSLRLSCAASGIIFAWYAMGWYRQAPGKERELLAAISWSGGSTYYADSVKGRFTISRDNAKNTVYLQMNILKPEDSAVYYCAPFPRRQGKYDYWGKGTQVTVSS | high polyreactivity
* QVQLVESGGGLVQAGGSLRLSCAASGFIFRLYAMGLYRQAPGKERELVAAITTSGDSTYYADSVKGRFTISRDNSKNTFYLQMNCLKPEDTAVYYCAARYYYPPKRGYWGQGSQVTVSS | high polyreactivity

Here are 2 sequences. What values of polyreactivity (PSR sort gate) were reported for them?
1. QVQLVESGGGLVQAGGSLRLSCAASGSTFQSYAMGWSRPAPGKERELVAAISFSGGSTYYADSVKGRFTISRDHAKNTVYLQMNSLKPEDTAVYYCAADVAYVEYAYWGQGTQVTVSS
2. QVQLVESGGGLVQAGGSLRLSCAASGFTFLPYVMGWYRQAPGKERELVAGITRTGSTNYADSVKGRFTISRDNAKNTVYLQMNSLKPEDTAVYYCAARLKYWGDYYYWGQGTQVTVSS

1: low polyreactivity; 2: low polyreactivity

// for each sequence below, give its polyreactivity (PSR sort gate)
1. QVQLVESGGGLVQAGGSLRLSCAASGFTFLLYAMGWYRQAPGKERELVAAITWSTGNTYYADSVKGRFTISRDNAKNTVYLQMNSLKPEDTAVYYCYAEYLVITWYGGVEFDYWGQGTQVTVSS
2. QVQLVESGGGLVQAGGSLRLSCAASGSIFLGNAMGWYRQAPGKERELVAAITSRGGRTYYADSVKGRFTISRDNAKNTVYLQMISLKPEDTAVYYCAADVSRPRAGFNYWGQGTQVTVSS
3. QVQLVESGGGLVQAGGSLRLSCAPSGRIIYRYAIGWYRQAPRKETDLVAAITIGGRTNYADSVKGRFTISRDNANNPVYLEMISLKPEDTAVYYCAVVLYTRYPPRVRYYYWGQGTQVTVSS
4. QVQLVESVGGLVQAGGSLRLSCAASGTFKWYAMGWYRQAPGKERELVAVISSSGGTTYYADSVKGRFTISRDNAKNTVYLQMNSLKPEDTAVYYCNKRFRSWTTGSPYDYWGQGTQVTVSS

1. low polyreactivity
2. high polyreactivity
3. high polyreactivity
4. high polyreactivity
